# SYSTEM TESTED: Aspartate--tRNA(Asp/Asn) ligase (Mycobacterium tuberculosis (strain ATCC 25618 / H37Rv)) (UniProt P9WFW3); note: in the data most compounds retested in dose-response had high values
# Sequence (P9WFW3 whole entry): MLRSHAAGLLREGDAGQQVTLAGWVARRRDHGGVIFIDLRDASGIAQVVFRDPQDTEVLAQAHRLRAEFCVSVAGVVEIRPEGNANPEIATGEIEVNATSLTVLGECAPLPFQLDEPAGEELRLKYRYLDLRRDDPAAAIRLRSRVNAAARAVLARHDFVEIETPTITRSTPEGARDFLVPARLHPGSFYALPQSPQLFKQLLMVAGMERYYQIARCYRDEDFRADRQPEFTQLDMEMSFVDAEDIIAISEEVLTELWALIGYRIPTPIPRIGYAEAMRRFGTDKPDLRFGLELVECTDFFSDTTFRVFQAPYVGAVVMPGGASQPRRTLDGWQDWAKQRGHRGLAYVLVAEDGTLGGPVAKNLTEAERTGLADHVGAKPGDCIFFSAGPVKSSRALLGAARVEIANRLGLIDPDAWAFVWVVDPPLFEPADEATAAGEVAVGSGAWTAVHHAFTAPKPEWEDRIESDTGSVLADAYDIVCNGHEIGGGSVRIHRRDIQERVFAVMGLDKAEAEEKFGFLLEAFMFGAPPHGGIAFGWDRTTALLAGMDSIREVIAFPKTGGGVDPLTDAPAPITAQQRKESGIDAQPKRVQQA
# PROTOCOL: Assay for Asp RNA synthetase-1 from Mycobacterium tuberculosis
# Format: functional
# Parameters: scale not given: direction of the effect not stated beside the values
# CONDITION PARAMETERS: 30 µM
MEASUREMENT NAME: Percent Effect (%)
Give the number; % is assumed, so skip it.

Sample records with Percent Effect:
Recorded Percent Effect (compound Cc1nc(CN2CCc3ncnc(-c4ccc(F)cc4)c3CC2)cs1 ): -0.199

The compound listed as CC1(C(=O)N2CCOCC2)CN(Cc2ccccc2F)CCO1 (centres undefined) has a reported Percent Effect of -0.309

The value of Percent Effect measured for the compound COc1cc(C(=O)NS(=O)(=O)c2cccc(C#N)c2)ccc1C turned out to be -2.04

# compound Cc1ccc(C)c(NC(=O)c2n[nH]c(-n3cnnc3)n2)c1 ; its Percent Effect = -4.33

Per the record, O=S(=O)(c1ccccc1)N1CCCN(CCCn2ccnc2)CC1 has Percent Effect of -2.67

Quick note, Percent Effect for O=C(CCNC(=O)c1ccccc1N1CCOCC1)NC1CCCC1 landed at -1.94

// field: Percent Effect; key: CC(NC1(CNC(=O)Cn2cccn2)CCOCC1)c1ccccc1 (centres undefined) ; value = -0.24

Looking up Cc1ccc(NC2CCN(C(=O)c3cc(C(N)=O)cs3)CC2)nn1 , I found its Percent Effect recorded as 4.69

Percent Effect reported for this compound Cc1cnc2c(c1NCc1ccncc1)c(=O)n(C)c(=O)n2C : -5.41

The recorded Percent Effect for Cc1cccc(NC2CCN(C(=O)Nc3cc(F)cc(F)c3)CC2)n1 is -4.31

---
COc1ccc(-c2nc(CN3CCOCS3(=O)=O)c(C)o2)cc1 has a reported Percent Effect of -1.67

====

Here, each record is paired with measured Percent Effect data.
# SYSTEM TESTED: Shiga toxin 2 (Escherichia coli O157:H7) (UniProt P09385+P09386)
# PROTOCOL: E. coli 0.157:H7 Shiga Toxin SOP - stx2 screening assay
# Format: functional
# Parameters: scale not given: direction of the effect not stated beside the values
# CONDITION PARAMETERS: 30 µM
Return type: number; implicit unit %.

Short answer for Cc1ccc(C2CCCCCN2Cc2cn(C)nc2C)s1 (stereo not drawn) : Percent Effect was -71.3

// Percent Effect value for CN(C)C(=O)CN1CCCC2(CCN(c3ccsc3)C2=O)C1 (stereo not drawn) : -21.7

Data point: CCN(C)c1ncnc2c1CCN(C(=O)N1CCCC1)CC2 ; Percent Effect = -30.9

According to the records, this molecule CN(C)C(=O)[C@@H]1CCO[C@@H]2CCN(Cc3ccc4c(c3)OCO4)C[C@@H]21 displays Percent Effect of -27.6

Value of measured Percent Effect for the entry Cc1ccc(OCC(=O)NS(=O)(=O)c2c(C)noc2C)cc1C : -54.6

---
Percent Effect for O=C(C1CCOCC1)N1CCC2(CC1)CC(Oc1ccccc1)CO2 (stereo not drawn) is 25.7

For record O=C(c1ccc2c(c1)OCO2)N1CCC[C@]2(C[C@H](OCC3CC3)CO2)C1 the listed Percent Effect is 5.01

// field: Percent Effect; key: Cc1cc(C)n(CC2CCCN2C(=O)c2ccc3c(c2)nnn3C)n1 (stereo not drawn) ; value = -34.8

Looking up Cc1cccc(CN2C(=O)C[C@H]3[C@@H]2CCN3Cc2ccccn2)n1 , I see its Percent Effect listed as -19.3

Percent Effect reported for this molecule CC(=O)NCc1ccc(C(=O)N2CCCCC2Cn2cccn2)o1 (stereo not drawn) : -2.7

Sample O=C(CSc1ccccn1)N1C[C@H]2CC[C@@H]1CN(Cc1cscn1)C2 ; Percent Effect observed: -6.72

Value of Percent Effect reported for the molecule Fc1ccc(CN2CCCC2c2cncc(-n3ccnc3)n2)cc1 (stereo not drawn) is 24.5

Briefly, Percent Effect measured for O=C1CCC2(CCN(Cc3cc(F)cc(F)c3)CC2)CN1CCO : 6.69

Quick note, Percent Effect for CC(c1cccc(S(N)(=O)=O)c1)N(C)CCc1ccccc1 (stereo not drawn) landed at -26.2

For reference, reported Percent Effect for Cc1nn(C)c(N(C)C)c1CNCc1cccnc1 stands at -13

Recorded result, COc1cc(C(=O)N2CCCC(CNS(C)(=O)=O)C2)cc(OC)c1C (stereo not drawn) , Percent Effect: 25.9

// field: Percent Effect; key: Cc1ccccc1CC(=O)N(C)C1CCN(c2ccccn2)CC1 ; value = 6.11

Looking up CC(C)CC(=O)N1CCN(C(=O)N(C)C)CC2(CC(=O)N(C)C2)C1 (stereo not drawn) , I see its Percent Effect listed as 1.92

Note to self: Percent Effect recorded for CNC(=O)[C@@H]1C[C@H]2CN(Cc3ccco3)C[C@H]2N1C was -1.93

The value of Percent Effect measured for the molecule CCc1ccsc1C(=O)N1CCN(CC(O)CC)CC1 (stereo not drawn) turned out to be -26.4

Percent Effect in this record for CC(C)c1nc(C2CCCN2Cc2ccccc2C#N)no1 (stereo not drawn) : -29.9

The reported value for COCCN(C)C[C@@H]1CCC[C@@H]2CN(c3cc(OC)ncn3)C[C@@H]21 in terms of Percent Effect is 2.29

The reported value for Cn1ccc(CN2CCC(NC(=O)NC3CCCCC3)CC2)cc1=O in terms of Percent Effect is -11.2
